Each entry below carries its reported GI50.
- Test system: SNB-75
- assay_procedure: NCI tumour cell line growth inhibition, 48 h
Active and inactive are the calls of the source. Cut-off read from the data, not from the text of the source: active = GI50 up to about 1.1 µM and inactive = higher.

Below, 4 molecules whose answers are already recorded.
molecule | tgt | measured_result
O=C(NN1C(=O)C=CC1=O)c1ccccc1Nc1ccccc1C(=O)NN1C(=O)C=CC1=O | SNB-75 | > 100 µM (inactive)
COc1cc(NS(C)(=O)=O)ccc1NCc1c2ccccc2nc2ccccc12 | SNB-75 | > 100 µM (inactive)
O=C(O)C(CSC(c1ccccc1)(c1ccccc1)c1ccccc1)/N=C/c1cccs1 (stereo not given) | SNB-75 | 5.48 µM (inactive)
CCCN(CCCCC(NC(C)=O)C(=O)NCc1ccccc1)C(=O)NCCCl (stereo not given) | SNB-75 | > 100 µM (inactive)

For the molecule O=C(O)/C(O)=C1/C=C(c2ccccc2)c2ccccc21 , what GI50 is on record? 22 µM (inactive)

* * *

- System: 786-0
- assay_procedure: NCI tumour cell line growth inhibition, 48 h
The source made the active and inactive calls. Rule as the data show it: active = GI50 up to about 1.1 µM and inactive = higher. Starred links: 1 amine or outer side, 2 acyl side, 3 side chain; linkers in the order of their positions; H or OH if unused. Non-standard residues stand in square brackets, D forms with d. Residues, ends and D or L forms follow the SMILES beside them. X41 = CSCCCC(N[*:1])C(=O)[*:2]
Tick one outcome: T (active), F (inactive)

Sample answers from the record:
compound | category_label
c1ccc2c(c1)Nc1ccccc1[P+]21c2ccccc2Nc2ccccc21 | T
CCCCCCc1cc2cc(C(=O)Nc3ccccc3)c(=N)oc2cc1O | F
COc1cc2cc3c4c(cc(OC)c(OC)c4c2cc1OC)CCN3C(=O)OCCN1CCNCC1 | F
O=C1NC(O)n2c(=O)[nH]c(=O)n21 (stereo not drawn) | F
COc1ccc(NC(=O)CC(=O)N2N=C(N(CCC#N)c3cccc(C)c3)CC2c2ccccc2)cc1 (stereo not drawn) | F
CCc1ccccc1-n1c2nc(=O)n(C)c(=O)c-2nc2ccccc21 | F

What did this assay record as the result for Nc1ccc(S(=O)(=O)c2ccc(NCN3C(=O)NC(=O)C(=O)C3=O)cc2)cc1 ? F

What did this assay record as the result for COc1ccc(/C=C2\C(=O)N(C)C(=O)c3cc(OC)c(OC)cc32)cc1OC ? F

What did this assay record as the result for CCOC(=O)CC(=O)C(=O)NN=C1NCCCN1 ? F

What did this assay record as the result for CCCC(=O)CC(C)C(=O)C(=O)NC12CC3CC(CC(C3)C1)C2 (stereo not drawn) ? F

What did this assay record as the result for Nc1ccc(Oc2ccc(C34CC5CC6C3CC3CC4C(C5)C6(c4ccc(Oc5ccc(N)c(O)c5)cc4)C3)cc2)cc1O ? F

What did this assay record as the result for O=C(Nc1ccc(Cl)cc1C(F)(F)F)C(=O)Nn1c(S)nc2ccccc2c1=O ? F

What did this assay record as the result for CN(Cc1ccccc1)c1nc(=[N+](C)C)ss1 ? F

What did this assay record as the result for CSCCCC(NC(=O)CNC(=O)C1CCCN1C(=O)C(Cc1ccc(O)cc1)NC(=O)C(Cc1ccccc1)NC(=O)C(CCCNC(=N)N)NC(=O)C(CC(=O)O)NC(=O)C1CCCN1C(=O)C(CC(=O)O)NC(=O)C1CCCN1C(=O)C1CCCN1C(=O)CN)C(N)=O (stereo not drawn) (H-GPPDPDRFYPG[X41]-NH2; configuration not given here) ? F

What did this assay record as the result for COc1cc(C(c2ccc3c(c2)OCO3)N2C(=O)CCC2C(=O)O)cc(OC)c1OC (stereo not drawn) ? F
